Reference for the values: patent US12281122B1

Tested on: SKBR3 (PI3Kα-Wild Type) cell line
ASSAY REMARKS: HTRF phospho-AKT(S473) cell assay in SKBR3 cells
Type: cell-based, human
TEST CONDITIONS: Homo sapiens, SK-BR-3; SKBR3 (PI3Kα-Wild Type) cells, HTRF phospho-AKT(S473), 2 hours compound incubation, PDGF-BB stimulated
Experimental: Compounds in the present disclosure were tested in a cell based HTRF phospho-AKT(S473) (CisBio/Revvity) assay in human breast cancer cell lines as a measurement of PIK3CA activity through measuring AKT, a downstream effector. The activity of mutant PI3Kα-H1047R and PI3Kα-Wild Type was measured in the T47D (PI3Kα-H1047R) and SKBR3 (PI3Kα-Wild Type) cell lines, respectively. […] The following day, plates were centrifuged for 1 minute at 1000 rpm, and read on a PHERAstar plate reader. […]
pIC50: −log10 of the molar value.
QUANTITY NAME: pIC50

{"columns": ["MOLECULE", "pIC50"],
 "data": [
  ["Cc1cc([C@@H](C)Nc2ccc(Cl)nc2C(=O)NS(C)(=O)=O)c2nc(N3CCN(c4ccccc4)CC3)n(C)c(=O)c2c1", "5.30 to 6.00"]
]}

Looking up CO[C@H]1C[C@H](S(=O)(=O)NC(=O)c2nc(Cl)ccc2N[C@H](C)c2cc(C)cc3c(=O)n(C)c(N4Cc5ccc(F)cc5C4)nc23)C1 , I found its pIC50 recorded as ≤ 5.30

Quick note, pIC50 for Cc1cc([C@@H](C)Nc2ccc(Cl)nc2C(=O)NS(C)(=O)=O)c2nc(N3CCc4nn(C5COC5)cc4C3)n(C)c(=O)c2c1 landed at 5.30 to 6.00

Note to self: pIC50 recorded for Cc1cc([C@@H](C)Nc2ccc(Cl)nc2C(=O)NS(C)(=O)=O)c2nc(N3CCC(n4ncc5cc(C#N)ccc54)CC3)n(C)c(=O)c2c1 was 5.30 to 6.00

The molecule Cc1cc([C@@H](C)Nc2ccc(Cl)nc2C(=O)NS(C)(=O)=O)c2nc(N3[C@@H]4CC[C@H]3C[C@@H](c3ccn(C)n3)C4)n(C)c(=O)c2c1 showed pIC50 equal to ≤ 5.30

The molecule listed as Cc1cc([C@@H](C)Nc2cn(C)nc2C(N)=O)c2nc(N3Cc4ccc(F)cc4C3)n(C)c(=O)c2c1 (single isomer, unassigned) shows pIC50 equal to ≤ 5.30
